The measurements presented in this section are drawn from patent US20260193372A1.

study_system: T1, stabilized human C3bBb complex comprising the Bb subunit of the FB protein of SEQ ID NO: 3 (triple mutant), … (human, UniProt P01024 23-667; P00751 260-764; P01024 749-1663, limits assumed, biotinylated with EZ-Link HPDP-Biotin (Cys))
T1 construct: also called C3bBb (D279G/350N/M458I); C3bBb triple mutant-HPDP
T1 sequence (P01024 23-667 limits assumed, stated change not applied, chain 1 of 3): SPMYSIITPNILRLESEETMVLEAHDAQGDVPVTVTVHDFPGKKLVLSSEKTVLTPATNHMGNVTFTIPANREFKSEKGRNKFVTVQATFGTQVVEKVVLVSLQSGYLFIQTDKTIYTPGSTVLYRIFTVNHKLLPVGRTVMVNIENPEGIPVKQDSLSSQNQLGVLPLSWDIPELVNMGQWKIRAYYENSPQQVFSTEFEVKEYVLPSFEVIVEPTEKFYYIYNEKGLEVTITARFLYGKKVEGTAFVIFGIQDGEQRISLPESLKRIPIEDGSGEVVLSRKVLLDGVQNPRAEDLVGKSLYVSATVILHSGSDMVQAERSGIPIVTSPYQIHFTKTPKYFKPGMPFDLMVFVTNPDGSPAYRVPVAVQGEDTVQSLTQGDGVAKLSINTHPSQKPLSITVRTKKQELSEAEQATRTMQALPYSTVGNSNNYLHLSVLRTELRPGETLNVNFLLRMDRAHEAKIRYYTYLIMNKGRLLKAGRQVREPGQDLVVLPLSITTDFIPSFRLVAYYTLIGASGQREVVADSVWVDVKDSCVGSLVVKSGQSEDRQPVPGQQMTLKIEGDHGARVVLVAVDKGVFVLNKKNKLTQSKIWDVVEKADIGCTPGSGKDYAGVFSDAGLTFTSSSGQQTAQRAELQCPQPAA
T1 sequence (P00751 other isoform, or with tags, fused parts or gaps mutant limits assumed, chain 2 of 3): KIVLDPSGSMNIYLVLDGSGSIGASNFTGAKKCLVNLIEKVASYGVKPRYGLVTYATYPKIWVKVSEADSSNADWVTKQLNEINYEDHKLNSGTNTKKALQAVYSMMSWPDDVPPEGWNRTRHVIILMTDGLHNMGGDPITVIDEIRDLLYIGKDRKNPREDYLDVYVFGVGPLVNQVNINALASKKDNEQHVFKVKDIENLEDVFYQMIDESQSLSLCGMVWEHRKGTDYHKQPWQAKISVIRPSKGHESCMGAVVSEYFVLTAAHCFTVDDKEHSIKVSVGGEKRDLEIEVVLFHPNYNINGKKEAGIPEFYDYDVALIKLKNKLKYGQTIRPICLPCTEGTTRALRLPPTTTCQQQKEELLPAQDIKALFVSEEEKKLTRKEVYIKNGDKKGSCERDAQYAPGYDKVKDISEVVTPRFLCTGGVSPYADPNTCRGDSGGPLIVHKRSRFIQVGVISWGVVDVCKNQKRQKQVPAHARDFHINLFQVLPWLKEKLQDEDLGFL
T1 sequence (P01024 749-1663 limits assumed, stated change not applied, chain 3 of 3): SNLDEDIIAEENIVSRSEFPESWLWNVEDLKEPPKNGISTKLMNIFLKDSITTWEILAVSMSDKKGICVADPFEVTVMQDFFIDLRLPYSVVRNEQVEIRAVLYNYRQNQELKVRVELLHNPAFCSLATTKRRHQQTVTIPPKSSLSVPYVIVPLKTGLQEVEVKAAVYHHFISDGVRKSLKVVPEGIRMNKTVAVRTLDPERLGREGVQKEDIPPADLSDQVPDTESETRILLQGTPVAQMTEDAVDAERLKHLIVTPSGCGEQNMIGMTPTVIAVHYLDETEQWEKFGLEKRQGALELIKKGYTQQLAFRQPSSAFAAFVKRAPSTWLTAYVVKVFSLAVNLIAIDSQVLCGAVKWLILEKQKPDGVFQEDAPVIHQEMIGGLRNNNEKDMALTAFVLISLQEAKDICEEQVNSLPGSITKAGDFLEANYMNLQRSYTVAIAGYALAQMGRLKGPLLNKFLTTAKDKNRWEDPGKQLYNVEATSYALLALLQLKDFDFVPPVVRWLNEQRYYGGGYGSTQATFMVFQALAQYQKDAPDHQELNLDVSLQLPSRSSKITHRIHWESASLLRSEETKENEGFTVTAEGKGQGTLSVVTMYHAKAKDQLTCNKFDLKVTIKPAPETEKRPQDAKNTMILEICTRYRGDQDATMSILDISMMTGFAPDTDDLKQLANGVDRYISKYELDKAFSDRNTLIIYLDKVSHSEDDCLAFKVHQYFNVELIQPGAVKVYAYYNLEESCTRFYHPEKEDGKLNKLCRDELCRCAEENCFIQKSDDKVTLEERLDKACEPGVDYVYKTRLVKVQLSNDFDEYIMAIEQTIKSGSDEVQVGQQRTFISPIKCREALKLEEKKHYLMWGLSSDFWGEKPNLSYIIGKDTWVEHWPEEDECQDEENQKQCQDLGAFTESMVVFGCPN
assay_remarks: ELISA, biotinylated C3bBb on streptavidin plate, Fab supernatant, anti kappa/anti T7 HRP

- binder: "C3bBb.P048.241 (Fab, V domains shown, Tested as soluble Fab in E. coli supernatant with a T7 tag at the C-terminus of the Fab CH1 domain; detected with anti human kappa) VH: GQLVESGGGLVKPGGSLRLSCKASGFYWGPGAMSWVRQAPGKGLEWVGSISPKGGSAWYNNNFTGRFTISRDNNQDTLYLQMNSLRAEDTAVYYCARDIGFFDTWGQGTLVTVSS VL: INQMTQSPSSLSASVGDRVTITCQAKWVISNYLAWYQQKPGKAPKLLIFDAKYRAPEVPSRFSGSGSDGTFTLTISSLQPEDFATYYCQQYDWWPYTFGQGTKVEIK"
  result_unit: "OD"
  OD (370 nm): 2.38
